test.target: NS5B mutant M423T (amino acids 1-570; GT-1b) (Hepatitis C virus genotype 1b, UniProt Q9WMX2, M2842T)
Construct: 21 residue C-terminal truncated forms of the NS5b protein (amino acids 1-570); GT-1b
protocol.description: Surface Plasmon Resonance binding affinity to M423T NS5B
Give Kd for every item shown.
Answers are plain numbers, in nM.

Recorded Kd, per entry:
>  <compound>
CC1=CC[C@@H](C(=O)N(c2cc(C#CC(C)(C)C)sc2C(=O)O)C(C)C)[C@@H](C)C1 [Example 4]

>  <Kd, nM>
18.5

$$$$
>  <compound>
CC1=CC[C@@H](C(=O)N(c2cc(C#CC(C)(C)C)sc2C(=O)O)C(C)C)[C@H](C)C1 (single isomer, unassigned) [Example 2]

>  <Kd, nM>
26.8

$$$$
>  <compound>
CC1=CC[C@@H](C(=O)N(c2cc(C#CC(C)(C)C)sc2C(=O)O)C(C)C)CC1 [Example 5]

>  <Kd, nM>
13.7

$$$$
>  <compound>
CC1=CC[C@H](C(=O)N(c2cc(C#CC(C)(C)C)sc2C(=O)O)C(C)C)[C@@H](C)C1 [Example 3]

>  <Kd, nM>
4.2

$$$$

Below are some compounds; for each one, tell me its Kd.
1. CC(C)N(c1cc(C#CC(C)(C)C)sc1C(=O)O)C(=O)[C@H]1CC[C@H](C)CC1 [Comparative example 1, reference compound]
2. CC1=CC[C@H](C(=O)N(c2cc(C#CC(C)(C)C)sc2C(=O)O)C(C)C)[C@H](C)C1 (single isomer, unassigned) [Example 1]

1: 2.78; 2: 7.7

Below are some compounds; for each one, tell me its Kd.
1. CC1=CC[C@H](C(=O)N(c2cc(C#CC(C)(C)C)sc2C(=O)O)C(C)C)CC1 [Example 6]
2. CC(C)N(C(=O)[C@@H]1CC[C@@H](C)C[C@H]1C)c1cc(C#CC(C)(C)C)sc1C(=O)O [Comparative example 4, reference compound]

14.3
144

###

Tested on: genotype 1b (Con-1 strain) HCV replicon with NS5B M423T mutation
protocol.description: Transient transfection replicon assay, NS5B M423T mutant PI-hRluc replicon in Huh-lunet cells
Assay type: cell-based, HCV genotype 1b (Con-1 strain)
reported.conditions: Hepatitis C virus, 72 h, read-out: Replicon transient transfection EC50 M423T
Give pEC50 for every item shown.
One number for each entry, as −log10 of the molar value.

Recorded pEC50, per entry:
>  <compound>
CC(C)(C)C#Cc1cc(N(C(=O)[C@H]2CC[C@H](C)CC2)[C@H]2CC[C@H](O)CC2)c(C(=O)O)s1 [Comparative example 2, reference compound]

>  <pEC50>
6.46

$$$$
>  <compound>
CC(C)N(c1cc(C#CC(C)(C)C)sc1C(=O)O)C(=O)[C@H]1CC[C@H](C)CC1 [Comparative example 1, reference compound]

>  <pEC50>
6.53

$$$$
>  <compound>
CC1=CC[C@H](C(=O)N(c2cc(C#CC(C)(C)C)sc2C(=O)O)C(C)C)CC1

>  <pEC50>
7.40

$$$$

What pEC50 value was documented for this compound, `CC1=CC[C@H](C(=O)N(c2cc(C#CC(C)(C)C)sc2C(=O)O)C(C)C)[C@@H](C)C1` ? 7.85

###

Test system: genotype 1b (Con-1 strain) HCV replicon, wild-type
protocol.description: Transient transfection replicon assay, wild-type PI-hRluc replicon in Huh-lunet cells
Format: cell-based, HCV genotype 1b (Con-1 strain)
reported.conditions: Hepatitis C virus, 72 h, wild-type genotype 1b PI-hRluc replicon, three days
Give EC50 for every item shown.

>  <compound>
CC(C)N(c1cc(C#CC(C)(C)C)sc1C(=O)O)C(=O)[C@H]1CC[C@H](C)CC1 [Comparative example 1, reference compound]

>  <test.target>
genotype 1b (Con-1 strain) HCV replicon, wild-type

>  <EC50>
26 nM

$$$$
>  <compound>
CC1=CC[C@H](C(=O)N(c2cc(C#CC(C)(C)C)sc2C(=O)O)C(C)C)CC1

>  <test.target>
genotype 1b (Con-1 strain) HCV replicon, wild-type

>  <EC50>
8 nM

$$$$
>  <compound>
CC1=CC[C@H](C(=O)N(c2cc(C#CC(C)(C)C)sc2C(=O)O)C(C)C)[C@@H](C)C1

>  <test.target>
genotype 1b (Con-1 strain) HCV replicon, wild-type

>  <EC50>
5 nM

$$$$

In the following, a different compound is considered.
What EC50 value was documented for this compound, CC(C)(C)C#Cc1cc(N(C(=O)[C@H]2CC[C@H](C)CC2)[C@H]2CC[C@H](O)CC2)c(C(=O)O)s1 [Comparative example 2, reference compound] ? 10 nM

Hello, the source for this data is patent US8741946B2, in case you need it.
